Measured Ki values are reported for all entries that follow.
target: human EP4 receptor (Homo sapiens, UniProt P35408); construct: expressed in transfected cells; membrane fraction used; test: [3H]-Prostaglandin E2 membrane binding assay (human EP4/HEK293 transfectant membranes); details: [3H]-PGE2 1 nM, hEP4/HEK293 membranes; Ki by Cheng-Prusoff; read-out: Binding pKi (converted)
Sequence (P35408 whole entry): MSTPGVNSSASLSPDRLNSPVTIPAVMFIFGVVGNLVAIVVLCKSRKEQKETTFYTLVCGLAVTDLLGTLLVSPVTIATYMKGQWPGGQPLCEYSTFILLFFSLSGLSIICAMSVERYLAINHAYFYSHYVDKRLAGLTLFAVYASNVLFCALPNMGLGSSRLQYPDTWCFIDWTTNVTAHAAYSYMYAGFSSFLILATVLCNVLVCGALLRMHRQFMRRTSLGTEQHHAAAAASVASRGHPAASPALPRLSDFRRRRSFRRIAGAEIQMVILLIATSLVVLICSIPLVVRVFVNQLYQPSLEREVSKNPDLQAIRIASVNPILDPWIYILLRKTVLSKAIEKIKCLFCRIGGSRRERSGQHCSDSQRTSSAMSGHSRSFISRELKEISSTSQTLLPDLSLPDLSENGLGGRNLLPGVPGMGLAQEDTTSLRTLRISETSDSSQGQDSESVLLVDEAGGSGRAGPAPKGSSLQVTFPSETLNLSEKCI
readout: Ki (nM)

O=C(O)c1ccc(C2(NC(=O)c3cc(C(F)(F)F)cnc3N3CC(Oc4cccc(OC(F)(F)F)c4)C3)CC2)cc1 [E 43] :: 3.16
O=C(O)c1ccc(C2(NC(=O)c3cc(Cl)cnc3N3CC(Oc4cccc(F)c4)C3)CC2)cc1 [E 16] :: 3.16
O=C(O)c1ccc(C2(NC(=O)c3cc(Cl)cnc3N3CCC(Oc4ccccc4)C3)CC2)cc1 (single isomer, unassigned) [E 62] :: 25.1
O=C(O)c1ccc(C2(NC(=O)c3cc(Cl)cnc3N3CCCC3c3ccccc3)CC2)cc1 (single isomer, unassigned) [E 3] :: 31.6
O=C(O)c1ccc(C2(NC(=O)c3cc(Cl)cnc3N3CCC(Oc4cccc(F)c4)C3)CC2)cc1 (single isomer, unassigned) [E 71] :: 39.8
O=C(O)c1ccc(C2(NC(=O)c3cc(C(F)(F)F)cnc3N3CC(Oc4ccc(F)c(C(F)(F)F)c4)C3)CC2)cc1 [E 42] :: 3.16
O=C(O)c1ccc(C2(NC(=O)c3cc(Cl)cnc3N3CCC(Oc4cccc(C(F)(F)F)c4)C3)CC2)cc1 (single isomer, unassigned) [E 64] :: 31.6
O=C(O)c1ccc(C2(NC(=O)c3cc(C(F)(F)F)cnc3N3CC(Oc4cccc(F)c4)C3)CC2)cc1 [E 38] :: 12.6
O=C(O)c1ccc(C2(NC(=O)c3cc(Cl)cnc3N3CC(Oc4ccc(F)c(F)c4)C3)CC2)cc1 [E 20] :: 10
O=C(NC1(c2ccc(-c3nnn[nH]3)cc2)CC1)c1cc(Cl)cnc1N1CC(Oc2cccc(F)c2)C1 [E 82] :: 5.01
Cc1cc(F)ccc1NC1CN(c2ncc(F)cc2C(=O)NC2(c3ccc(C(=O)O)cc3)CC2)C1 [E 56] :: 10
O=C(O)c1ccc(C2(NC(=O)c3cc(C(F)(F)F)cnc3N3CC(Nc4ccc(F)cc4)C3)CC2)cc1 [E 50] :: 12.6
O=C(O)c1ccc(C2(NC(=O)c3cc(F)cnc3N3CC(Oc4cccc(OC(F)(F)F)c4)C3)CC2)cc1 [E 55] :: 31.6
C[C@H](NC(=O)c1cc(Cl)cnc1N1CC(Oc2ccc(F)cc2)C1)c1ccc(C(=O)O)cc1 [E 11] :: 100
O=C(O)c1ccc(C2(NC(=O)c3cc(Cl)cnc3N3CCC(c4ccccc4)C3)CC2)cc1 (single isomer, unassigned) [E 4] :: 200

* * *

assay: Pharmacokinetics in male Han Wistar rats, intravenous and oral; type: in vivo; details: male, Han Wistar, plasma; rat, IV, 1.0 mg/kg
readout: AUC(0-inf) (ng·h/mL)

Cc1cc(F)ccc1NC1CN(c2ncc(Cl)cc2C(=O)NC2(c3ccc(C(=O)O)cc3)CC2)C1 :: 302
O=C(O)c1ccc(C2(NC(=O)c3cc(C(F)(F)F)cnc3N3CC(Oc4cccc(F)c4)C3)CC2)cc1 :: 832
Cc1cc(F)ccc1NC1CN(c2ncc(C(F)(F)F)cc2C(=O)NC2(c3ccc(C(=O)O)cc3)CC2)C1 :: 389

* * *

experiment: Pharmacokinetics in male Han Wistar rats, intravenous and oral; assay type: in vivo; details: male, Han Wistar, plasma; rat, PO, 1.0 mg/kg
Measured AUC(0-t) values are reported for all entries that follow.
readout: AUC(0-t) (ng·h/mL)

O=C(O)c1ccc(C2(NC(=O)c3cc(C(F)(F)F)cnc3N3CC(Oc4cccc(F)c4)C3)CC2)cc1 :: 551
Cc1cc(F)ccc1NC1CN(c2ncc(Cl)cc2C(=O)NC2(c3ccc(C(=O)O)cc3)CC2)C1 :: 125
Cc1cc(F)ccc1NC1CN(c2ncc(C(F)(F)F)cc2C(=O)NC2(c3ccc(C(=O)O)cc3)CC2)C1 :: 225

* * *

molecular target: human EP4 receptor (Homo sapiens, UniProt P35408); construct: expressed in transfected cells; membrane fraction used; experiment: [3H]-Prostaglandin E2 membrane binding assay (human EP4/HEK293 transfectant membranes); settings: [3H]-PGE2 1 nM, hEP4/HEK293 membranes; Ki by Cheng-Prusoff; read-out: Binding pKi (converted)
readout: Ki (nM)

O=C(O)c1ccc(C2(NC(=O)c3cc(Cl)cnc3N3CC(Nc4ccc(F)cc4F)C3)CC2)cc1 :: 6.31
O=C(O)c1ccc(C2(NC(=O)c3cc(C(F)(F)F)cnc3N3CC(Oc4ccc(F)cc4F)C3)CC2)cc1 :: 10
O=C(O)c1ccc(C2(NC(=O)c3cc(Cl)cnc3N3CC(O)(c4ccc(F)cc4)C3)CC2)cc1 :: 79.4
O=C(O)c1ccc(CNC(=O)c2cc(Cl)cnc2N2CC(Oc3cccc(F)c3)C2)cc1 :: 31.6

* * *

assay: Pharmacokinetics in male Han Wistar rats, intravenous and oral; type: in vivo; settings: male, Han Wistar, plasma; rat, IV, 1.0 mg/kg; read-out: t½* (converted)
Measured half-life values are reported for all entries that follow.
readout: half-life (h)

Cc1cc(F)ccc1NC1CN(c2ncc(Cl)cc2C(=O)NC2(c3ccc(C(=O)O)cc3)CC2)C1 :: 0.34
O=C(O)c1ccc(C2(NC(=O)c3cc(C(F)(F)F)cnc3N3CC(Oc4cccc(F)c4)C3)CC2)cc1 :: 5.9
Cc1cc(F)ccc1NC1CN(c2ncc(C(F)(F)F)cc2C(=O)NC2(c3ccc(C(=O)O)cc3)CC2)C1 :: 1.12

* * *

biological target: human EP4 receptor (Homo sapiens); construct: membrane fraction used; experiment: cAMP assay (AlphaScreen) on human EP4 membrane of transfected cells, antagonism of PGE2; details: HEK293 hEP4 cell membrane stimulated with PGE2 3 nM; read-out: functional IC50
Measured IC50 values are reported for all entries that follow.
readout: IC50 (µM)

O=C(O)c1ccc(C2(NC(=O)c3cc(C(F)(F)F)cnc3N3CC(Oc4cccc(Cl)c4)C3)CC2)cc1 :: 0.0077
O=C(O)c1ccc(C2(NC(=O)c3cc(Cl)cnc3N3CCC(Oc4cccc(F)c4)C3)CC2)cc1 (single isomer, unassigned) [E 69] :: 0.308
O=C(O)c1ccc(C2(NC(=O)c3cc(Cl)cnc3N3CCC(Oc4ccc(F)cc4)C3)CC2)cc1 (single isomer, unassigned) [E 66] :: 0.043
O=C(O)c1ccc(C2(NC(=O)c3cc(C(F)(F)F)cnc3N3CC(Oc4ccc(F)cc4)C3)CC2)cc1 :: 0.072
O=C(O)c1ccc(C2(NC(=O)c3cc(Cl)cnc3N3CCC(Oc4ccccc4)C3)CC2)cc1 (single isomer, unassigned) [E 62] :: 0.046
O=C(O)c1ccc(C2(NC(=O)c3cc(Cl)cnc3N3CCC(Oc4cccc(F)c4)C3)CC2)cc1 (single isomer, unassigned) [E 71] :: 0.11
O=C(O)c1ccc(C2(NC(=O)c3cc(Cl)cnc3N3CCC(c4ccccc4)C3)CC2)cc1 (single isomer, unassigned) :: 0.102
O=C(O)c1ccc(C2(NC(=O)c3cc(Cl)cnc3N3CCC(Oc4ccccc4)C3)CC2)cc1 (single isomer, unassigned) [E 60] :: 0.0965

* * *

Measured bioavailability values are reported for all entries that follow.
Assay: Pharmacokinetics in male Han Wistar rats, intravenous and oral
Format: in vivo
Conditions: male, Han Wistar, rat, plasma, po, 2 mg/kg, PO, 2.0 mg/kg, read-out: F %
Description: Determination of PK of the Invention Compounds The pharmacokinetics of compounds E10, E16, E34, E38, E51, were studied in male Han Wistar rats. The rats were treated intravenously and orally (n=3 for each dose route) with a compounds formulated as solutions. The rats were fitted with a jugular cannula for serial sampling. A full profile was acquired for each rat. Plasma extracts were quantitatively analyzed using a specific and sensitive LC-MS/MS bioanalytical method. […]
readout: bioavailability (%)

O=C(O)c1ccc(C2(NC(=O)c3cc(Cl)cnc3N3CC(Oc4ccccc4)C3)CC2)cc1 [E 10] :: 56
O=C(O)c1ccc(C2(NC(=O)c3cc(Cl)cnc3N3CC(Oc4cccc(F)c4)C3)CC2)cc1 [E 16] :: 91

* * *

test: Pharmacokinetics in male Han Wistar rats, intravenous and oral; type: in vivo; details: male, Han Wistar, plasma; rat, IV, 1.0 mg/kg
Measured AUC(0-t) values are reported for all entries that follow.
readout: AUC(0-t) (ng·h/mL)

O=C(O)c1ccc(C2(NC(=O)c3cc(C(F)(F)F)cnc3N3CC(Oc4cccc(F)c4)C3)CC2)cc1 :: 816
Cc1cc(F)ccc1NC1CN(c2ncc(Cl)cc2C(=O)NC2(c3ccc(C(=O)O)cc3)CC2)C1 :: 300
Cc1cc(F)ccc1NC1CN(c2ncc(C(F)(F)F)cc2C(=O)NC2(c3ccc(C(=O)O)cc3)CC2)C1 :: 385

* * *

target: human EP4 receptor (Homo sapiens, UniProt P35408); construct: expressed in transfected cells; membrane fraction used; experiment: [3H]-Prostaglandin E2 membrane binding assay (human EP4/HEK293 transfectant membranes); details: [3H]-PGE2 1 nM, hEP4/HEK293 membranes; Ki by Cheng-Prusoff; read-out: Binding pKi (converted)
# strict inequality: Ki < 10 nM yields Fulfilled, everything else yields Not fulfilled

Cc1cc(F)ccc1N(C)C1CN(c2ncc(Cl)cc2C(=O)NC2(c3ccc(C(=O)O)cc3)CC2)C1 [E 37] :: Not fulfilled
Cc1cc(F)ccc1NC1CN(c2ncc(Cl)cc2C(=O)NC2(c3ccc(C(=O)O)cc3)CC2)C1 [E 34] :: Fulfilled
O=C(O)c1ccc(C2(NC(=O)c3cc(Cl)cnc3N3CC(Nc4cccc(C(F)(F)F)c4)C3)CC2)cc1 [E 31] :: Fulfilled
O=C(O)c1ccc(C2(NC(=O)c3cc(Cl)cnc3N3CCC(Oc4ccc(F)cc4)C3)CC2)cc1 (single isomer, unassigned) [E 68] :: Not fulfilled
O=C(O)c1ccc(C2(NC(=O)c3cc(Cl)cnc3N3CCC(Oc4cccc(C(F)(F)F)c4)C3)CC2)cc1 (single isomer, unassigned) [E 63] :: Not fulfilled
O=C(O)c1ccc(C2(NC(=O)c3cc(C(F)(F)F)cnc3N3CC(Oc4cccc(C(F)(F)F)n4)C3)CC2)cc1 [E 47] :: Not fulfilled
O=C(O)c1ccc(C2(NC(=O)c3cc(F)cnc3N3CC(Oc4cccc(F)c4)C3)CC2)cc1 [E 53] :: Not fulfilled
